Target: T1, eIF4E (untagged, co-expressed with p20);His6x-p20 WT (Saccharomyces cerevisiae;Saccharomyces …, UniProt P07260;P12962 1-213;1-161, |)
T1 sequence 1: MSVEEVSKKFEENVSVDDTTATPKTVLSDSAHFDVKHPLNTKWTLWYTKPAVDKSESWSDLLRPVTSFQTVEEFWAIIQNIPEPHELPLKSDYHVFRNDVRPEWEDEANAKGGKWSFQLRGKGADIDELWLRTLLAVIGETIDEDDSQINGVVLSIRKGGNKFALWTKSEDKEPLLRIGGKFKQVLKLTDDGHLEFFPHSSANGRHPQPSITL
T1 sequence 2: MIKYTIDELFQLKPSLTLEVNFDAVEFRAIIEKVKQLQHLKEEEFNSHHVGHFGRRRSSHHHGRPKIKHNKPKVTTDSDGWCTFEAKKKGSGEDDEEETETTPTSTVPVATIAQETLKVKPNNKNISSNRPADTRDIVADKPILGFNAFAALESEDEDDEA
Test: EMSA; Buffer A: 10 mM sodium phosphate pH 7.5, 100 mM NaCl, 2.5 mM MgCl2, 1 mM DTT, 0.05% NP40; MST at 25 C (proteins for capped RNA MST RED-tris-NTA labeled in buffer B: 20 mM HEPES-KOH pH 7.5, 50 mM NaCl, 1 mM DTT); EMSA 1.5% agarose, 1x TBE, temperature not stated
Conditions: protein: recombinant;recombinant; tags: ;N-terminal His6x; copies: 1;1; label: 3' FAM
pKd: −log10 of the molar value.
readout-name: pKd

binder | readout-name | data-value
GUAUUACAAGAAACAAAAAUUCAAGUAAAUAACAGAUAAU (ssRNA) [uncapped SSA1 5'UTR RNA, 40 nt] | pKd | 5.06

Source listed as paper PMC5928113.
